# testedSystem: UniProt O39930
# Sequence (O39930 whole entry): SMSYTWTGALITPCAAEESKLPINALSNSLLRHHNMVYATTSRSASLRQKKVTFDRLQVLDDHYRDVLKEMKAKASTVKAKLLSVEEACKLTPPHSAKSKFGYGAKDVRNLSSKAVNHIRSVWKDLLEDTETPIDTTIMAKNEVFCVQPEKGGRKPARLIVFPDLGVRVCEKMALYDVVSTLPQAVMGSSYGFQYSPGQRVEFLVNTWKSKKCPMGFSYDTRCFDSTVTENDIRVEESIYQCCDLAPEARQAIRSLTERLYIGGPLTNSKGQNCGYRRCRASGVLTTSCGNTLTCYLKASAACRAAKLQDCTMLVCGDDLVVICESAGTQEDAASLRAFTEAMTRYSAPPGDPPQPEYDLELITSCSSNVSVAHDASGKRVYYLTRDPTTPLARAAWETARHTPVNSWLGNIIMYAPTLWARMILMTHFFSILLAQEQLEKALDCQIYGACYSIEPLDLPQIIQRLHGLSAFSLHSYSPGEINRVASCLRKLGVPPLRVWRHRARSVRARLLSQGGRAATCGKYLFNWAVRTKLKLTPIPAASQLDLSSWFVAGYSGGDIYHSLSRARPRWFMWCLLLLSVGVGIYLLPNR
testReadout: IC50

[[record]]
smilesrepresentation = "CC(C)(C)c1ccccc1Oc1ccc(/C=C(\\NC(=O)c2ccccc2)C(=O)O)cc1"
testreadout = "IC50"
reportedvalue = "> 100 µM"


Briefly, IC50 measured for "O=C(O)/C(=C/c1ccc(-c2cccc(CO)c2)o1)NC(=O)c1ccccc1" : > 100 µM

Briefly, IC50 measured for "NS(=O)(=O)c1cccc(-c2ccc(/C=C(\NC(=O)c3ccccc3)C(=O)O)o2)c1" : > 100 µM
